Biological target: T1, 4Ig-B7H3 (human, UniProt Q5ZPR3 27-461, limits assumed)
T1 construct: also called 4Ig-B73H3
T1 sequence (looked up): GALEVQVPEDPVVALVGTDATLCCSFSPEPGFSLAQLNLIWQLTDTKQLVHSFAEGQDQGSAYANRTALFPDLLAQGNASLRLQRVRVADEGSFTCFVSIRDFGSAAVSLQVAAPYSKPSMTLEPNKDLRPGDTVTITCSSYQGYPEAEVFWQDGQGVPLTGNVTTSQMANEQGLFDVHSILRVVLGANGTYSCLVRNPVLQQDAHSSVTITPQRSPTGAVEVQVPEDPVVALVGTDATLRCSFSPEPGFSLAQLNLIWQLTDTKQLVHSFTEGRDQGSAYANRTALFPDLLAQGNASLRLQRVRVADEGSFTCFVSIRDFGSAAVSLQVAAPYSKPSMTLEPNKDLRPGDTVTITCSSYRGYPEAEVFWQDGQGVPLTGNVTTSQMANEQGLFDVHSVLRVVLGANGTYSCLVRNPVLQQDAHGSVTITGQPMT
Assay: SPR (Biacore T-100), 4Ig-B7H3 on CM5 chip, scFv injected
Measured Quantity: kon (M⁻¹ s⁻¹)
Hi! Could you send only the number? It should be in M⁻¹ s⁻¹, unit omitted.

Look over these answered cases.
hu8H9 clone S7.22 scFv (scFv, not shown: FLAG and His tags) scFv: QVQLVQSGAEVVKPGASVKLSCKTSGYTFTNYDINWVRQRPGQGLEWIGWIFPGDDSTQYNEKFKGKATLTTDTSTSTAYMELSSLRPEDTAVYFCARQTTGTWFAYWGQGTLVTVSSGGGGSGGGGSGGGGSEIVMTQSPATLSVSPGERVTLSCRASQSISDYLYWYQQKSHESPRLLIKYASQSIPGIPARFSGSGSGSEFTLTINSVEPEDVGVYYCQNGHSFPLTFGQGTKLELKR
86100
hu8H9 clone S7.28 scFv (scFv, not shown: FLAG and His tags) scFv: QVQLVQSGAEVVKPGASVKLSCKTSGYTFTNYDINWVRQRPGQGLEWIGWIFPGDGSTQYNEKFKGKATLTTDTSTSTAYMELSSLGSEDTAVYFCTRQTTATWFAYWGQGTLVTVSSGGGGSGGGGSSGGGSEIVMTQSPATLSVSPGERVTLSCRASQSIGDYLYWYQQKSHESPRLLIKYASQSISGIPARFSGSGSGSEFTLTINSVEPEDVGVYYCQNGHSFPLTFGQGTKLELKR
4750
hu8H9 H3L3 scFv (scFv, also called parental hu8H9 H3L3; not shown: FLAG and His tags) scFv: QVQLVQSGAEVVKPGASVKLSCKASGYTFTNYDINWVRQRPEQGLEWIGWIFPGDGSTQYNEKFKGKATLTTDTSTSTAYMELSSLRSEDTAVYFCARQTTATWFAYWGQGTLVTVSSGGGGSGGGGSGGGGSEIVMTQSPATLSVSPGERVSLSCRASQSISDYLHWYQQKSHESPRLLIKYASQSISGIPARFSGSGSGSEFTLTINSVEPEDVGVYYCQNGHSFPLTFGQGTKLELKR
6380
hu8H9 clone S7.29 scFv (scFv, not shown: FLAG and His tags) scFv: QVQLVQSGAEVVKPGASVKLSCKTSGYTFTNYDINWVRQRPGQGLEWIGWIFPGDGSTQYNEKFKGKATLTTDTSTSTAYLELSSLGSEDTAVYFCARQTTGTWFAYWGQGTLVTVSSGGGGSGGGGSGGGGSEIVMTQSPATLSVSPGERVTLSCRASQSISDYLYWYQQKSHESPRLLIKYASQSISGIPARFSGSGSGSEFTLTINSVEPEDVGVYYCQNGHSFPLTFGQGTKLELKR
55900
hu8H9 clone S3.3 scFv (scFv, also called Sort3; not shown: FLAG and His tags) scFv: QVQLVQSGAEVVKPGASVKLSCKTSGYTFTNYDINWVRQRPGQGLEWIGWIFPGDGSTQYNEKFKGKATLTTDTSTSTAYMELSSLRSEDTAVYFCARQTTATWFAYWGQGTLVTVSSGGGGSGGGGSGGGGSEIVMTQSPATLSVSPGERVTLSCRASQSISDYLYWYQQKSHESPRLLIKYASQSISGIPARFSGSGSGSEFTLTINSVEPEDVGVYYCQNGHSFPLTFGQGTKLELKR
24800

Read the next record carefully.
# return recorded kon for entry hu8H9 clone S7.17 scFv (scFv, not shown: FLAG and His tags) scFv: QVQLVQSGAEVVKPGASVKLSCKTSGYTFTNYDINWVRQRPGQGLEWVGWIFPGDGSTQYNEKFKGKATLTTDTSTSTAYMELSSLRSEDTAVYFCARQTTSTWFAYWGQGTLVTVSSGGGGSGGGGSGGGGSEIVMTQSPATLSVSPGERVTLSCRASQPISDYLYWYQQKSHESPRLLIKYASQSISGIPARFSGSGSGSEFTLTINSVEPEDVGVYYCQNGYSFPLTFGQGTKLELKR
51000

Data provenance: patent US20170240637A1
